Every entry's value here was drawn from the supplement of paper PMC8253809.

Give EC50 (log10 M) for every item shown.
# Tested on: DIPGX29 (H3.3 K27M diffuse intrinsic pontine glioma line)
# experiment summary: EC50 (inflection of fitted growth-inhibition curve) (log10 M)
Give your answer as a number; write no unit.

Prompt: Consider the compound shown here: Cc1nc(-c2cn3c(n2)-c2ccc(-c4cnn(C(C)(C)C(N)=O)c4)cc2OCC3)n(C(C)C)n1 What is its recorded EC50 (log10 M)?
Completion: -5.8

Prompt: Same again, this time with Cc1c(CN2CCC(Nc3ncnc4sc(CC(F)(F)F)cc34)CC2)ccc2c1cc(C#N)n2Cc1cn[nH]c1
Completion: -4.9

Prompt: Same again, this time with CC(C)c1cc(C(=O)N2Cc3ccc(CN4CCN(C)CC4)cc3C2)c(O)cc1O
Completion: -5.68

Prompt: Same again, this time with CCCCc1oc2ccc(NS(C)(=O)=O)cc2c1C(=O)c1ccc(OCCCN(CCCC)CCCC)cc1
Completion: -5.42

Prompt: Same again, this time with CNC(=O)c1cc(Oc2ccc(NC(=O)Nc3ccc(Cl)c(C(F)(F)F)c3)c(F)c2)ccn1
Completion: -4.87

Prompt: Same again, this time with CC(C)N(CCCNC(=O)Nc1ccc(C(C)(C)C)cc1)C[C@H]1O[C@@H](n2cc(Br)c3c(N)ncnc32)[C@H](O)[C@@H]1O
Completion: -4.49

Prompt: Same again, this time with COc1cc2nc(N3CCCC3)nc(NCCCCCN3CCCC3)c2cc1OC
Completion: -4.88

Prompt: Same again, this time with CC(C)/N=c1\cc2n(-c3ccc(Cl)cc3)c3ccccc3nc-2cc1Nc1ccc(Cl)cc1
Completion: -5.16

Prompt: Same again, this time with OCCN1CCN(CCCN2c3ccccc3Sc3ccc(C(F)(F)F)cc32)CC1
Completion: -4.74

Prompt: Same again, this time with C#Cc1cccc(Nc2ncnc3cc(OCCOC)c(OCCOC)cc23)c1
Completion: -4.82

Prompt: Same again, this time with CC(C(O)c1ccc(O)cc1)N1CCC(Cc2ccccc2)CC1 (centres undefined)
Completion: -4.85

Prompt: Same again, this time with Cc1nnc(C[C@@H]2C=C(c3ccc(Cl)cc3)c3ccccc3-n3c(C)nnc32)o1
Completion: -5.5

Prompt: Same again, this time with Cc1cn(CCN2CCN(c3ccccc3-c3cc(C#N)cc(C(=O)NCCCN4CCCC4)c3)CC2)c2ccccc12
Completion: -5.13

Prompt: Same again, this time with CO[C@H]1C[C@@H]2CC[C@@H](C)[C@@](O)(O2)C(=O)C(=O)N2CCCC[C@H]2C(=O)O[C@H]([C@H](C)C[C@@H]2CC[C@@H](OC(=O)C(C)(CO)CO)[C@H](OC)C2)CC(=O)[C@H](C)/C=C(\C)[C@@H](O)[C@@H](OC)C(=O)[C@H](C)C[C@H](C)/C=C/C=C/C=C/1C
Completion: -4.69

Prompt: Same again, this time with O=C(CCCCCCNC(=O)c1cnc(N(c2ccccc2)c2ccccc2)nc1)NO
Completion: -4.94

Prompt: Same again, this time with Cc1nn(C)c(COc2ccc(N3CCN(S(=O)(=O)N(C)C)CC3)cc2)c1-c1cccc2c(CCCOc3cccc4ccccc34)c(C(=O)O)n(CCN3CCOCC3)c12
Completion: -4.9

Prompt: Same again, this time with Cn1cnc2c(F)c(Nc3ccc(Br)cc3Cl)c(C(=O)NOCCO)cc21
Completion: -4.87

Prompt: Same again, this time with Clc1ccc(NN=C(c2ccccc2)c2ccccn2)nc1
Completion: -5.13

Prompt: Same again, this time with Cc1ccc(NC2=CC(=O)c3sc(C)nc3C2=O)cc1
Completion: -6.12

Prompt: Same again, this time with Cc1cccc(CN2CCN(C(c3ccccc3)c3ccc(Cl)cc3)CC2)c1 (centres undefined)
Completion: -4.89

Prompt: Same again, this time with Nc1ccn([C@@H]2O[C@H](CO)[C@@H](O)C2(F)F)c(=O)n1
Completion: -8.08

Prompt: Same again, this time with C[C@@H](O[C@H]1OCCN(Cc2n[nH]c(=O)[nH]2)[C@H]1c1ccc(F)cc1)c1cc(C(F)(F)F)cc(C(F)(F)F)c1 [APREPITANT]
Completion: -4.8

Prompt: Same again, this time with CC(C)NC[C@@H](C(=O)N1CCN(c2ncnc3c2[C@H](C)C[C@H]3O)CC1)c1ccc(Cl)cc1
Completion: -5.18

Prompt: Same again, this time with C=C[C@]1(C)C[C@@H](OC(=O)CSC(C)(C)CNC(=O)[C@H](N)C(C)C)[C@]2(C)[C@H](C)CC[C@]3(CCC(=O)[C@H]32)[C@@H](C)[C@@H]1O
Completion: -4.85
